Target: Mitogen-activated protein kinase 1 (Homo sapiens)
Experiment: Assay 1
// pKi lookup, one value per entry
On this scale, pKi is minus log10 of a concentration expressed in M (mol/L).

Cc1cnc(NC(CO)CO)nc1-c1c[nH]c(C(=O)N[C@H](CO)c2ccccc2)c1    8.30
Cc1cnc(Nc2cccc3c2OC(F)(F)O3)nc1-c1c[nH]c(C(=O)N[C@H](CO)c2ccccc2)c1    8.10
Cc1cnc(NC2CCNCC2)nc1-c1c[nH]c(C(=O)N[C@H](CO)c2cccc(Cl)c2)c1    7.82
Cc1cnc(N)nc1-c1c[nH]c(C(=O)N[C@H](CO)c2ccccc2)c1    5.72

-- ask // lookup pKi for Cc1ccc(Nc2ncc(C)c(-c3c[nH]c(C(=O)N[C@H](CO)c4ccccc4)c3)n2)c(C)c1
-- reply 8.52

-- ask // lookup pKi for Cc1cnc(N)nc1-c1c[nH]c(C(=O)N[C@@H](CCO)c2ccccc2)c1
-- reply 5.81

-- ask // lookup pKi for CSCC[C@@H](CO)Nc1ncc(C)c(-c2c[nH]c(C(=O)N[C@H](CO)c3ccccc3)c2)n1
-- reply 8.30

-- ask // lookup pKi for O=C(N[C@H](CO)c1ccccc1)c1cc(-c2nc(Nc3ccccc3)ncc2C2CC2)c[nH]1
-- reply 6.38

====

Target: Mitogen-activated protein kinase 1 (Homo sapiens)
Assay: Assay 1
measurement_type: pKi
On this scale, pKi is minus log10 of a concentration expressed in M (mol/L).

Here's what some known entries look like.
Cc1cc(C)cc(Nc2ncc(C)c(-c3c[nH]c(C(=O)N[C@H](CO)c4ccccc4)c3)n2)c1 [erk000566]    8.52
Cc1cnc(N[C@@H](C)CO)nc1-c1c[nH]c(C(=O)N[C@H](CO)c2ccccc2)c1 [erk000471]    7.82
CCCONc1ncc(C)c(-c2c[nH]c(C(=O)N[C@H](CO)c3cccc(Cl)c3)c2)n1 [erk000615]    8.40

// moving on: another record for pKi
-- ask // lookup pKi for Cc1cnc(NCCN2CCCC2)nc1-c1c[nH]c(C(=O)N[C@H](CO)c2ccccc2)c1 [erk000568]
-- reply 6.65

====

Target: Mitogen-activated protein kinase 1 (Homo sapiens)
Assay: Assay 1
measurement_type: pKi
On this scale, pKi is minus log10 of a concentration expressed in M (mol/L).

Here's what some known entries look like.
CNc1ncc(C)c(-c2c[nH]c(C(=O)NCc3ccc(F)c(Cl)c3)c2)n1 [erk000393]    6.55
Cc1cccc([C@@H](CO)NC(=O)c2cc(-c3nc(Nc4ccccn4)ncc3C)c[nH]2)c1 [erk000603]    8.05

-- ask // lookup pKi for COc1cccc(Nc2ncc(C)c(-c3c[nH]c(C(=O)N[C@H](CO)c4ccccc4)c3)n2)c1C [erk000531]
-- reply 7.10

-- ask // lookup pKi for CC[C@@H](CO)Nc1ncc(Cl)c(N2CCN(C(=O)N[C@H](CO)c3cccc(Cl)c3)CC2)n1 [erk000711]
-- reply 7.42

-- ask // lookup pKi for Cc1cnc(NN2CCCC2)nc1-c1c[nH]c(C(=O)N[C@H](CO)c2cccc(Cl)c2)c1 [erk000624]
-- reply 8.15

-- ask // lookup pKi for Cc1cnc(N[C@H]2CCC[C@@H]2OCc2ccccc2)nc1-c1c[nH]c(C(=O)N[C@H](CO)c2cccc(Cl)c2)c1 [erk000609]
-- reply 7.34

-- ask // lookup pKi for Cc1cnc(N[C@H](CO)C(C)C)nc1-c1c[nH]c(C(=O)N[C@H](CO)c2ccccc2)c1 [erk000488]
-- reply 7.85

-- ask // lookup pKi for CCNc1ncc(C)c(-c2c[nH]c(C(=O)NCc3cccc(C(F)(F)F)c3)c2)n1 [erk000062]
-- reply 6.85

-- ask // lookup pKi for Cc1ccc(Nc2ncc(C)c(-c3c[nH]c(C(=O)N[C@H](CO)c4cccc(Cl)c4)c3)n2)cc1 [erk000585]
-- reply 8.15

-- ask // lookup pKi for Cc1cnc(Nc2cccc(C)c2C)nc1-c1c[nH]c(C(=O)N[C@H](CO)c2cccc(Cl)c2)c1 [erk000526]
-- reply 9.00

-- ask // lookup pKi for Cc1cnc(Nc2ccc(F)cc2F)nc1-c1c[nH]c(C(=O)N[C@H](CO)c2ccccc2)c1 [erk000658]
-- reply 8.70

-- ask // lookup pKi for Cc1cnc(NCC[C@@H]2CCCN2C)nc1-c1c[nH]c(C(=O)N[C@H](CO)c2ccccc2)c1 [erk000520]
-- reply 6.27

-- ask // lookup pKi for CCNc1ncc(C)c(-c2c[nH]c(C(=O)NCc3cccc(O)c3)c2)n1 [erk000484]
-- reply 7.17

====

Target: Mitogen-activated protein kinase 1 (Homo sapiens, UniProt P28482)
Sequence (P28482 whole entry): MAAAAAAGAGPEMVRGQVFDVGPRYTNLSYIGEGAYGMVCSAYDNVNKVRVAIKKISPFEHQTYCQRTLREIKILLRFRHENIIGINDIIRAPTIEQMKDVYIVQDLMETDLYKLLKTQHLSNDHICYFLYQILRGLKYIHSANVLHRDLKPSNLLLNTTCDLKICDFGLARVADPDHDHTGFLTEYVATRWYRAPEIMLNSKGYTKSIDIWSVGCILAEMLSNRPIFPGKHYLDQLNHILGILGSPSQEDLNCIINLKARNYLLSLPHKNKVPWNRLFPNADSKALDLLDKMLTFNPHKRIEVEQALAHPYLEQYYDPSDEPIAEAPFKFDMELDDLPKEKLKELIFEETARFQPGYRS
Test: Assay 1
measurement_type: Ki (nM)
Give just the number in nM; leave the unit off.

Cc1onc(-c2ccccc2)c1-c1ccnc(NC2CCC(O)CC2)n1 (stereo not drawn)    1000
Cc1cnc(N[C@H]2C[C@H]2CO)nc1-c1c[nH]c(C(=O)N[C@H](CO)c2ccccc2)c1    21
CCNc1ncc(C)c(-c2c[nH]c(C(=O)N3CCc4ccccc4C3)c2)n1    1590
Cc1cnc(Nc2c(C)cccc2Cl)nc1-c1c[nH]c(C(=O)N[C@H](CO)c2ccccc2)c1    110
Cc1cnc(N[C@H]2CCCOC2)nc1-c1c[nH]c(C(=O)N[C@H](CO)c2cccc(Cl)c2)c1    28
Cc1cnc(Nc2ccccc2C#N)nc1-c1c[nH]c(C(=O)N[C@H](CO)c2ccccc2)c1    2000
CN(C)c1sc(C#N)c2c1-c1nc(Nc3cccc(O)c3)ncc1CC2    40

// moving on: another record for Ki
-- ask // lookup Ki for Cc1ccc([C@@H](CO)NC(=O)c2cc(-c3nc(Nc4ccccc4)ncc3C)c[nH]2)cc1F
-- reply 2

====

Biological target: Mitogen-activated protein kinase 1 (Homo sapiens)
Experiment: Assay 1
measurement_type: Ki (nM)
Give just the number in nM; leave the unit off.

-- ask // lookup Ki for CCNc1ncc(C)c(-c2c[nH]c(C(=O)NCc3cccc(F)c3)c2)n1
-- reply 83

-- ask // lookup Ki for Cc1cnc(Nc2c(F)cccc2F)nc1-c1c[nH]c(C(=O)N[C@H](CO)c2cccc(Cl)c2)c1
-- reply 14

-- ask // lookup Ki for Cc1cnc(NC2CCC(C)CC2)nc1-c1c[nH]c(C(=O)N[C@H](CO)c2ccccc2)c1 (stereo partly drawn)
-- reply 6

-- ask // lookup Ki for Cc1cnc(Nc2ccc(OC(F)(F)F)cc2)nc1-c1c[nH]c(C(=O)N[C@H](CO)c2ccccc2)c1
-- reply 2

-- ask // lookup Ki for Cc1cnc(NCC2CCOCC2)nc1-c1c[nH]c(C(=O)N[C@H](CO)c2cccc(Cl)c2)c1
-- reply 17

-- ask // lookup Ki for Cc1cnc(NN2CCCCC2)nc1-c1c[nH]c(C(=O)N[C@H](CO)c2cccc(Cl)c2)c1
-- reply 5

-- ask // lookup Ki for Cc1cnc(Nc2c(F)cccc2F)nc1-c1c[nH]c(C(=O)N[C@H](CO)c2ccccc2)c1
-- reply 4

-- ask // lookup Ki for CC[C@@H](C)Nc1ncc(C)c(-c2c[nH]c(C(=O)N[C@H](CO)c3cccc(C)c3)c2)n1
-- reply 76

====

Biological target: Mitogen-activated protein kinase 1 (Homo sapiens, UniProt P28482)
Assay: Assay 1
measurement_type: pKi
On this scale, pKi is minus log10 of a concentration expressed in M (mol/L).

Here's what some known entries look like.
Cc1cccc([C@@H](CO)NC(=O)c2cc(-c3nc(NC4CCOCC4)ncc3C)c[nH]2)c1    8.52
Cc1cnc(N)nc1-c1c[nH]c(C(=O)NCc2ccc(F)c(F)c2)c1    7.32

-- ask // lookup pKi for Cc1cnc(NC2CC2)nc1-c1c[nH]c(C(=O)N[C@H](CO)c2cccc(C(F)(F)F)c2)c1
-- reply 8.70

-- ask // lookup pKi for CC[C@@H](COC(=O)C(C)(C)C)Nc1ncc(C)c(-c2c[nH]c(C(=O)N[C@H](CO)c3cccc(Cl)c3)c2)n1
-- reply 7.26

====

Molecular target: Mitogen-activated protein kinase 1 (Homo sapiens)
Experiment: Assay 1
// pKi lookup, one value per entry
On this scale, pKi is minus log10 of a concentration expressed in M (mol/L).

-- ask // lookup pKi for CC[C@@H](CO)Nc1ncc(C)c(-c2c[nH]c(C(=O)N[C@H](COC(=O)OC(C)C)c3cccc(Cl)c3)c2)n1
-- reply 7.43

====

Target: Mitogen-activated protein kinase 1 (Homo sapiens, UniProt P28482)
Assay: Assay 1
Classify: rule met when Ki is strictly less than 30 nM; rule not met when Ki is not.

Cc1cnc(NC(C)C)nc1-c1c[nH]c(C(=O)N[C@H](CO)c2cccc(F)c2)c1 [erk000536]    rule met
Cc1cnc(N[C@@H](C)COC(=O)C(C)C)nc1-c1c[nH]c(C(=O)N[C@H](COC(=O)C(C)C)c2cccc(Cl)c2)c1 [erk000677]    rule not met
Cc1cnc(NCCN2CCOCC2)nc1-c1c[nH]c(C(=O)N[C@H](CO)c2ccccc2)c1 [erk000519]    rule not met
Cc1cnc(NC#N)nc1-c1c[nH]c(C(=O)N[C@H](CO)c2ccccc2)c1 [erk000503]    rule met
CNc1ncc(C)c(-c2c[nH]c(C(=O)NCc3ccc(F)c(F)c3)c2)n1 [erk000056]    rule not met

-- ask Determine if Cc1cnc(Nc2cccc(F)c2C)nc1-c1c[nH]c(C(=O)N[C@H](CO)c2ccccc2)c1 [erk000538] shows Ki strictly lower than 30 nM.
-- reply rule met

-- ask Determine if N#Cc1c(NCCN2CCCCC2)sc(-c2ccnc(Nc3cccc(O)c3)n2)c1-c1cccc(Cl)c1 [erk000594] shows Ki strictly lower than 30 nM.
-- reply rule met

-- ask Determine if CCONc1ncc(Cl)c(-c2c[nH]c(C(=O)N[C@H](CO)c3cccc(C)c3)c2)n1 [erk000705] shows Ki strictly lower than 30 nM.
-- reply rule met

Where do the numbers come from? From BindingDB's records for aid1799744.
